Test system: HT-1080
Assay: Modulatory profiling: Alamar Blue viability, lethal compound cotreated with death modulator (EC50, AUC)
Format: cell-based
Details: Homo sapiens, HT-1080, 48 h, HT-1080; cotreated with MEK inh U0126; 48 h
So I've got a bunch of molecules here, and I need their pEC50 values.
# pEC50 = -log10(concentration in molar units)

pEC50 recorded for this molecule, `N/C(=N\OC(=O)C12CC3CC(CC(C3)C1)C2)c1ccccc1` , is 4.68

Please fill in: pEC50 reported for `O=C(CCl)N(c1ccccc1)c1c[nH]c2ccccc12` = 5.24

Value of pEC50 reported for the molecule `N/C(Cc1ccc(Cl)cc1)=N\OC(=O)c1cccc2ccccc12` is 4.99

Form field pEC50, entry `O=S(=O)(c1ccc2c(c1)C(=NO)c1cc(S(=O)(=O)N3CCCCC3)ccc1-2)N1CCCCC1` : 5.55

Measured pEC50, `COC(=O)[C@@H]1Cc2c([nH]c3ccccc23)C(C)(C)N1C(=O)CCl` : 4.84

// `O=C(CCl)N(c1ccc(Cl)cc1)c1c[nH]c2ccccc12` : pEC50 value = 5.60
